assay_text: recombinant UMI read abundance after kanamycin selection (control-corrected) (log10(CPM+1)); higher = more efficient recombination; extreme values may be limits of the assay; sequences stand for … in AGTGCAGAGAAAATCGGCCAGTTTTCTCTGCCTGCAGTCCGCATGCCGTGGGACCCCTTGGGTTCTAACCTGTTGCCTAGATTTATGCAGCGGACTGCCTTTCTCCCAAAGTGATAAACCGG…AGGTTGGTTTCACT; site = the 11-nt donor
Please use MET whenever recombinant UMI read abundance (log10) is not below 0.005, and NOT MET whenever it is.

- sequence: "ATAAGGCCATGGACCGGTTTTCCCGGTAATCCGTATTTGAC (site ATAAGCCCTGT)"
  class_label: "NOT MET"
- sequence: "GCCGTATCATGGACCGGTTTTCCCGGTAATCCGTATTTGAA (site GCCGTATCTTT)"
  class_label: "MET"
- sequence: "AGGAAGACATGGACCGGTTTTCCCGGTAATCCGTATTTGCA (site AGGAACACTTG)"
  class_label: "MET"
- sequence: "CATTCGGCATGGACCGGTTTTCCCGGTAATCCGTATTTGCA (site CATTCGGCTTG)"
  class_label: "MET"
- sequence: "CGTTAGGCATGGACCGGTTTTCCCGGTAATCCGTATTTGAG (site CGTTAGGCTCT)"
  class_label: "MET"
- sequence: "CACCTGCCATGGACCGGTTTTCCCGGTAATCCGTATTTGAC (site CACCTGCCTGT)"
  class_label: "NOT MET"
- sequence: "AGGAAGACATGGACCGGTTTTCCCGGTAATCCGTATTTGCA (site AAGAAGACTGG)"
  class_label: "NOT MET"
- sequence: "CACTCGGCATGGACCGGTTTTCCCGGTAATCCGTATTTGGA (site CACTGGGCTTC)"
  class_label: "MET"

====

assay_text: recombinant barcode read abundance after kanamycin selection (control-corrected) (log10(CPM+1)); higher = more efficient recombination; sequences stand for … in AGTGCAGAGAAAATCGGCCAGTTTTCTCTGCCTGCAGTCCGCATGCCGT…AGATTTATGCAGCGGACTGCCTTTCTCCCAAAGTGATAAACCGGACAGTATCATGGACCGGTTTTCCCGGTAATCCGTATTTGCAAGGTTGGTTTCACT; site = the 11-nt target
# if value of recombinant barcode read abundance (log10) reaches 0.3, tag Yes; if it stays below, tag No

- sequence: "ACTCCGTCTTGGGTTCTAACCTGTTGCCT (site ACTGCGTCTAG)"
  class_label: "No"
- sequence: "TACGCTCCTTGGGTTCTAACCTGTTGCTT (site TACGCTCCTAC)"
  class_label: "No"
- sequence: "TAGGCCACTTGGGTTCTAACCTGTTGCCT (site TAGGCCACTAT)"
  class_label: "No"
- sequence: "GAACTGCCTTGGGTTCTAACCTGTTGCTT (site CCTGACTCTGT)"
  class_label: "No"
- sequence: "TAGAATCCTTGGGTTCTAACCTGTTGCAG (site TAGAATCCTCT)"
  class_label: "Yes"
- sequence: "CCTACAACTTGGGTTCTAACCTGTTGCCT (site CCTACATCTAG)"
  class_label: "No"
- sequence: "TCGGGAACTTGGGTTCTAACCTGTTGCCT (site TCGGGAACTAG)"
  class_label: "Yes"
- sequence: "AATAGGGCTTGGGTTCTAACCTGTTGCGG (site AATAGGGCTCC)"
  class_label: "Yes"
- sequence: "TCAGGTACTTGGGTTCTAACCTGTTGCCT (site TCAGGTACTAG)"
  class_label: "No"
- sequence: "AGACGTACTTGGGTTCTAACCTGTTGCCT (site AGACGTACTAG)"
  class_label: "Yes"
